Tested on: human adipocytes
TEST PROTOCOL: Inhibition of forskolin-stimulated lipolysis of human adipocytes (glycerol release)
Assay type: cell-based
EXPERIMENTAL CONDITIONS: Adipocyte, 0.5 μM Forskolin, 16 hours, glycerol concentration, read-out: EC50 (anti-lipolysis)
pEC50: −log10 of the molar value.
Given measured pEC50, output condition met if it is greater than or equal to 6 and condition not met if not.

- O=C(O)c1ccnnc1: condition not met
- O=C(O)c1cnccn1: condition not met
- Cc1cnc(C(=O)O)c[n+]1[O-]: condition not met
- O=C(O)c1cccnc1: condition met
- Cl.O=C(Cl)c1cccnc1 [nicotinoyl chloride HCl]: condition met
